test system: Rattus norvegicus; assay: Distribution of radioactivity was determined in kidney at 30 min after intravenous administration of [125I]-labeled 2-oleoglycerol 1,3-Bis-[omega-(3-amino-2,4,6-triiodophenyl)alkanoates] in rats; format: ADME, organism-based; conditions: in vivo, 0.5 h
experimental-endpoint: Distribution of radioactivity (% dose/g)

[
  {
    "molecule": "CCCCCCCC/C=C/CCCCCCCC(=O)OC(COC(=O)CCc1c(I)cc(I)c(N)c1I)COC(=O)CCc1c(I)cc(I)c(N)c1I",
    "number": 0.11
  },
  {
    "molecule": "CCCCCCCC/C=C/CCCCCCCC(=O)OC(COC(=O)C(CC)Cc1c(I)cc(I)c(N)c1I)COC(=O)C(CC)Cc1c(I)cc(I)c(N)c1I (configuration not stated)",
    "number": 0.07
  },
  {
    "molecule": "CCCCCCCC/C=C/CCCCCCCC(=O)OC(COC(=O)Cc1c(I)cc(I)c(N)c1I)COC(=O)Cc1c(I)cc(I)c(N)c1I",
    "number": 0.1
  }
]

[a] CCCCCCCC/C=C/CCCCCCCC(=O)OC(COC(=O)CCCCCc1c(I)cc(I)c(N)c1I)COC(=O)CCCCCc1c(I)cc(I)c(N)c1I
[b] CCCCCCCC/C=C/CCCCCCCC(=O)OC(COC(=O)CCCCc1c(I)cc(I)c(N)c1I)COC(=O)CCCCc1c(I)cc(I)c(N)c1I
[c] CCCCCCCC/C=C/CCCCCCCC(=O)OC(COC(=O)CCCCCCc1c(I)cc(I)c(N)c1I)COC(=O)CCCCCCc1c(I)cc(I)c(N)c1I
[d] CCCCCCCC/C=C/CCCCCCCC(=O)OC(COC(=O)CCCc1c(I)cc(I)c(N)c1I)COC(=O)CCCc1c(I)cc(I)c(N)c1I
Challenge: Hey, quick one: sort these by Distribution of radioactivity, low to high? Response field: labels, in requested order.
Response given: b, a, d, c
(b: 0.05 % dose/g, a: 0.09 % dose/g, d: 0.14 % dose/g, c: 0.2 % dose/g)
